Reported pIC50 values for a set of compounds
Test system: NCI-H358 cells (K-Ras G12C)
Experiment: CellTiter-Glo cell viability, NCI-H358
Type: cell-based, human
Conditions: Homo sapiens, NCI-H358, 120 h, K-Ras G12C, 5-day treatment; read-out: H358 Cell Viability IC50
pIC50: −log10 of the molar value.

Example results:
compound smiles | data value
CCn1c(-c2cccnc2[C@H](C)OC)c2c3cc(ccc31)-c1csc(n1)C[C@H](NC(=O)[C@H](C(C)C)N(C)C(=O)N1C[C@H]3COC[C@H]3C1)C(=O)N1CCC[C@H](N1)C(=O)OCC(C)(C)C2 | 7.00 to 8.00
CCn1c(-c2cccnc2[C@H](C)OC)c2c3cc(ccc31)-c1csc(n1)C[C@H](NC(=O)[C@H](C(C)C)N(CCc1ccncc1)C1CC1)C(=O)N1CCC[C@H](N1)C(=O)OCC(C)(C)C2 | 6.00 to 7.00
CCn1c(-c2cccnc2[C@H](C)OC)c2c3cc(ccc31)-c1csc(n1)C[C@H](NC(=O)[C@H](C(C)C)N(C)C(=O)N1CCO[C@@H](CN(C)C)C1)C(=O)N1CCC[C@H](N1)C(=O)OCC(C)(C)C2 | 7.00 to 8.00
CCn1c(-c2cccnc2[C@H](C)OC)c2c3cc(ccc31)-c1cccc(c1)C[C@H](NC(=O)[C@H](C(C)C)N(C)C(=O)N1CC(OC)C1)C(=O)N1CCC[C@H](N1)C(=O)OCC(C)(C)C2 | 6.00 to 7.00
CCn1c(-c2cccnc2[C@H](C)OC)c2c3cc(ccc31)-c1csc(n1)C[C@H](NC(=O)[C@H](C(C)C)N(C)C(=O)N1CC(N(C)C(C)C)C1)C(=O)N1CCC[C@H](N1)C(=O)OCC(C)(C)C2 | 7.00 to 8.00
CCn1c(-c2cccnc2[C@H](C)OC)c2c3cc(ccc31)-c1csc(n1)C[C@H](NC(=O)[C@H](C(C)C)N(C)C(=O)N1CC[C@H](O)C1)C(=O)N1CCC[C@H](N1)C(=O)OCC(C)(C)C2 | 7.00 to 8.00

Recorded result, CCn1c(-c2cnccc2COC)c2c3cc(ccc31)-c1cc(O)cc(c1)C[C@H](NC(=O)[C@H](C(C)C)N(C)C(=O)N1CCN(C)CC1)C(=O)N1CCC[C@H](N1)C(=O)OCC(C)(C)C2 , pIC50: 5.00 to 6.00

For record CCn1c(-c2cccnc2[C@H](C)OC)c2c3cc(ccc31)-c1csc(n1)C[C@H](NC(=O)[C@H](C(C)C)N(C)C(=O)N(C)C1(C)COC1)C(=O)N1CCC[C@H](N1)C(=O)OCC(C)(C)C2 the listed pIC50 is 7.00 to 8.00

For this compound ( CCn1c(-c2ccccc2[C@H](C)OC)c2c3cc(ccc31)-c1csc(n1)C[C@H](NC(=O)[C@H](C(C)C)N(C)C(=O)[C@H]1CCN(C(=O)OC3COC3)C1)C(=O)N1CCC[C@H](N1)C(=O)OCC(C)(C)C2 ), measured pIC50 is 6.00 to 7.00

---

Biological target: KRAS G12V (Homo sapiens (Human), UniProt P01116+P62937, G12V)
Sequence (P01116 other isoform, or with tags, fused parts or gaps G12V): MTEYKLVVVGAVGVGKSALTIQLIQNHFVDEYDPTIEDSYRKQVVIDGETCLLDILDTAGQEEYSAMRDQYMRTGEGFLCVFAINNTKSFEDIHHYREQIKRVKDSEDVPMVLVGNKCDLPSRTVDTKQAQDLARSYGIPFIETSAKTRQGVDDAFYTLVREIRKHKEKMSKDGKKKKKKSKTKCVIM
Sequence (P62937 whole entry): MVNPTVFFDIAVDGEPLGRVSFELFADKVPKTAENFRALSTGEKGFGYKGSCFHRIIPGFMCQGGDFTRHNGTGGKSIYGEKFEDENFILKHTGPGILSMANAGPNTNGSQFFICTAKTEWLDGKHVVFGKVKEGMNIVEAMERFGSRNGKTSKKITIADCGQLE
Test: Ras-Raf disruption/FRET/MOA assay (BRAF RBD, Cyclophilin A)
Assay type: biochemical
Details: read-out: KRAS G12V FRET IC50
measured quantity: IC50

Here are 2 molecules together with their reported answers.
molecule | data value
CCn1c(-c2cccnc2[C@H](C)OC)c2c3cc(ccc31)-c1cc(O)cc(c1)C[C@H](NS(=O)(=O)CC1CCC3(CNC3)C1)C(=O)N1CCC[C@H](N1)C(=O)OCC(C)(C)C2 (stereo partly drawn) [Compound A188] | > 10 µM
CCn1c(-c2cccnc2[C@H](C)OC)c2c3cc(ccc31)-c1cc(O)cc(c1)C[C@H](NC(=O)[C@H](C(C)C)N(C)C(=O)C1CN3CCCN1CC3)C(=O)N1CCC[C@H](N1)C(=O)OCC(C)(C)C2 (stereo partly drawn) [Compound A404] | 1 to 10 µM

Now, please, on to the next molecule.
Form field, IC50 with KRAS G12V (Homo sapiens (Human), UniProt P01116+P62937, G12V), item CCn1c(-c2cccnc2[C@H](C)OC)c2c3cc(ccc31)-c1cc(O)cc(c1)C[C@H](NC(=O)[C@@H]1[C@H]3C[C@H]3CN1C(C)=O)C(=O)N1CCC[C@H](N1)C(=O)OCC(C)(C)C2 [Compound A207] : 1 to 10 µM
